MIC values, listed per item
test system: Candida; assay: Antifungal activity against Candida mycoderma ATCC 9888 after 24 hrs by micro broth dilution assay; format: functional; conditions: ATCC 9888, 24 h
Note: unit µM is implicit; provide only the numeric part.

Reference set, count: 3
Recorded result, Cc1ncc([N+](=O)[O-])n1CCCCCCn1cnc2cc(F)ccc2c1=O , MIC: 20

Recorded result, O=c1c2ccc(Cl)cc2ncn1CCCCn1cnc([N+](=O)[O-])c1 , MIC: 740

Recorded result, Cc1ncc([N+](=O)[O-])n1CCCCn1cnc2cc(Cl)ccc2c1=O , MIC: 40

Others:
Recorded result, O=c1c2ccc(Cl)cc2ncn1CCCCCCn1cnc([N+](=O)[O-])c1 , MIC: 40

Recorded result, O=c1c2ccc(Cl)cc2ncn1CCCCCn1cnc([N+](=O)[O-])c1 , MIC: 180

Recorded result, Cc1ncc([N+](=O)[O-])n1CCCCn1cnc2cc(F)ccc2c1=O , MIC: 50

Recorded result, Cc1ncc([N+](=O)[O-])n1CCCCCCn1cnc2cc(Cl)ccc2c1=O , MIC: 20
